# Test system: Trypanosoma brucei
# experiment description: Trypanosoma brucei 72 hour study
# Assay type: functional, organism-based
# Parameters: scale not given: in the data most compounds retested in dose-response had high values
# condition details: 10 µM
Out of some 66,000 compounds screened, about 960 (1.5%) showed an effect of 50% or more. Many of the other results were omitted from the sample, so strong results are more common in it than they were.
measured quantity: Percent Effect (%)
Entry rule: numbers only, all in %.

Quick check: Percent Effect of O=C(NCCc1coc(-c2ccccc2)n1)NC1CC1 ?
101.4

Quick check: Percent Effect of Cc1csc(C2CCCCN2C(=O)c2cc(C(C)C)[nH]n2)n1 (stereo not given) ?
-49.47

Quick check: Percent Effect of COc1ccnc(N2CCCN(C(=O)Cc3ccc(C)s3)CC2)n1 ?
-47.83

Quick check: Percent Effect of CSc1ccc(CNC(c2ccccc2F)c2nccn2C)cc1.Cl (stereo not given) ?
-81.16

Quick check: Percent Effect of CC(O)CN1CCC(CNCc2ccc(OC(F)(F)F)cc2)CC1 (stereo not given) ?
63.69

Quick check: Percent Effect of Nc1nc(CN2CCCC2Cn2cncn2)nc2ccccc12 (stereo not given) ?
-61.59

Quick check: Percent Effect of Cc1cnn(C2CCCN(C(=O)Cc3ccc(C#N)cc3)C2)c1 (stereo not given) ?
-12.45

Quick check: Percent Effect of CC(C)(CNC(=O)NCCc1ccn(-c2ccccc2)n1)C(N)=O ?
-34.81

Quick check: Percent Effect of CCNC(=O)N(C)C1CCN(Cc2ncc(C)c(OC)c2C)CC1 ?
-34.27

Quick check: Percent Effect of CCOCCCn1c(NC(=O)c2cnc(C)cn2)nc2ccccc21 ?
-41.49

Quick check: Percent Effect of CCN(CC)C(=O)NCCc1ccn(-c2ccccc2)n1 ?
99.69

Quick check: Percent Effect of O=C1NCCN1C1CCN(CCOc2ccccc2F)CC1 ?
-33.22

Quick check: Percent Effect of CCN(CC)Cc1ccc(C(=O)N2CCCC2Cn2cccn2)cc1 (stereo not given) ?
-13.25

Quick check: Percent Effect of CNc1cc2c(nn1)CCN(C(=O)c1cccc3c1OCCO3)C2 ?
-31.25

Quick check: Percent Effect of Cc1nn(C)c(N(C)C)c1CNCCOc1ccc2c(c1)OCO2.Cl ?
-62.44

Quick check: Percent Effect of CC(C)(C)n1ncc2c1CCCC2NCc1cccc2c1OCCO2 (stereo not given) ?
0.9444

Quick check: Percent Effect of Cc1ccoc1C(=O)NC1CCN(Cc2ccccc2C#N)CC1 ?
15.78

Quick check: Percent Effect of Cc1ccoc1C(=O)NC1CCN(Cc2cccc3ccccc23)CC1 ?
-9.27

Quick check: Percent Effect of CC(C)CCC(=O)NCCc1ccn(-c2ccccc2)n1 ?
100.3

Quick check: Percent Effect of CCOCCCn1c(NC(=O)c2cc(C)on2)nc2ccccc21 ?
-33.65

Quick check: Percent Effect of CCc1cccc(N2CCC(NC(=O)C3CCOCC3)CC2)c1 ?
-25.13

Quick check: Percent Effect of O=C(NC1CCN(Cc2cccc3c2OCCO3)CC1)c1cccs1 ?
10.83

Quick check: Percent Effect of Cc1cnn(CC2CCCN2C(=O)c2cn(C)c3ccccc23)c1 (stereo not given) ?
-33.63

Quick check: Percent Effect of CS(=O)(=O)N1CCN(CC(O)COc2ccc(Cl)cc2)CC1 (stereo not given) ?
-47.15

Quick check: Percent Effect of COc1cc(C(=O)Nc2nc(C)no2)cc(Cl)c1OC ?
-54.4

###

Could you please report measured Percent Effect for the items listed next?
# Tested on: Trypanosoma brucei
# experiment description: Trypanosoma brucei 72 hour study
# Format: functional, organism-based
# Set-up: scale not given: in the data most compounds retested in dose-response had high values
# condition details: 30.3 µM; […]
The campaign covered roughly 66,000 compounds. About 960 (1.5%) showed an effect of 50% or more. Only a selection was taken, and strong results are over-represented in it overall.
Entry rule: numbers only, all in %.

Under Trypanosoma brucei: Percent Effect value of CCc1csc(CNC2CCN(Cc3ccccc3)C2)n1 (stereo not drawn) ?
-9.701

Under Trypanosoma brucei: Percent Effect value of Cc1cccc(CN2CCCC2c2cccc(Nc3nccs3)n2)c1 (stereo not drawn) ?
33.44

Under Trypanosoma brucei: Percent Effect value of Cc1cc2nc(C(C)C)cc(N(C)CC3CCCN(CCO)C3)n2n1 (stereo not drawn) ?
9.548

Under Trypanosoma brucei: Percent Effect value of O=C(Nc1ccc(F)cc1)N1C[C@H]2C[C@H](C(=O)N3CCCC3)[C@@H](C1)O2 ?
-4.677

Under Trypanosoma brucei: Percent Effect value of CCOc1ccc(CN[C@@H]2COC[C@H]2c2ccc(F)cc2)cc1.O=C(O)CC(O)(CC(=O)O)C(=O)O ?
-47.65

Under Trypanosoma brucei: Percent Effect value of Cc1nc(CNC2CCN(Cc3ccccc3)C2)sc1C (stereo not drawn) ?
100.1

Under Trypanosoma brucei: Percent Effect value of CCc1nc(C)cc(N2CCCC(C(=O)c3ccc(OC)cc3C)C2)n1 (stereo not drawn) ?
68.93

Under Trypanosoma brucei: Percent Effect value of Cc1nc(CN2CCCC(NCc3cnc(C(C)(C)C)s3)C2)no1 (stereo not drawn) ?
-11.81

Under Trypanosoma brucei: Percent Effect value of CN(C)[C@@H]1CN(Cc2ccc(O)cc2)C[C@H]1c1cn(C)c2ccccc12.Cl ?
10.26

Under Trypanosoma brucei: Percent Effect value of c1ccc(Oc2ccc(OC34CCCN(CC3)C4)cc2)cc1 (stereo not drawn) ?
99.82

Under Trypanosoma brucei: Percent Effect value of Cc1nnc(C(C)NCC2(c3ccc(Cl)cc3)CCCC2)o1 (stereo not drawn) ?
-10.5

Under Trypanosoma brucei: Percent Effect value of CCn1nc(C)c2nnn(CC(=O)Nc3ccccc3)c(=O)c21 ?
-5.47

Under Trypanosoma brucei: Percent Effect value of Cc1nccc(C2CCCCN2Cc2cccc(F)c2)n1 (stereo not drawn) ?
-5.435

Under Trypanosoma brucei: Percent Effect value of NCC1CN(C(=O)Cn2ncc(N3CCCCC3)cc2=O)CCO1 (stereo not drawn) ?
7.872

Under Trypanosoma brucei: Percent Effect value of c1ccc(Oc2cccc(OC34CCCN(CC3)C4)c2)cc1 (stereo not drawn) ?
99.26

Under Trypanosoma brucei: Percent Effect value of CCCNCc1ccc(-c2cc(N)nc3[nH]ccc23)cc1 ?
58.31

Under Trypanosoma brucei: Percent Effect value of CN(C)c1ccc(CN(CCCn2ccnc2)Cc2c[nH]cn2)cc1.O=C(O)CC(O)(CC(=O)O)C(=O)O ?
101.7

Under Trypanosoma brucei: Percent Effect value of Cc1ccc(CN(CCCn2ccnc2)Cc2cnc(N(C)C)nc2)s1.O=C(O)CC(O)(CC(=O)O)C(=O)O ?
-19.58

Under Trypanosoma brucei: Percent Effect value of COC1CN(C(=O)CC(C)(C)C)CCC(=O)N(C)c2ccccc21 (stereo not drawn) ?
-11.06

Under Trypanosoma brucei: Percent Effect value of CN(C)[C@@H]1CN(Cc2ccccn2)C[C@H]1c1cn(C)c2ccccc12.Cl ?
22.59

Under Trypanosoma brucei: Percent Effect value of COc1ccc(C2(CNC(C)c3nnc(C)o3)CCCCC2)cc1 (stereo not drawn) ?
100.1

Under Trypanosoma brucei: Percent Effect value of Cc1nc(CN2CCCC(NCc3cccc4ccccc34)C2)no1 (stereo not drawn) ?
-31.57

Under Trypanosoma brucei: Percent Effect value of C1CC(N2Cc3nnn(CC4CC4)c3C(COCC3CC3)C2)C1.O=C(O)C(F)(F)F (stereo not drawn) ?
-49.13

Under Trypanosoma brucei: Percent Effect value of Cc1nc(CN2CCCC(NCc3nc4ccccc4s3)C2)no1 (stereo not drawn) ?
74.19

Under Trypanosoma brucei: Percent Effect value of Cc1cccc(C2(CNC(C)c3nnc(C)o3)CCCC2)c1 (stereo not drawn) ?
99.4

Under Trypanosoma brucei: Percent Effect value of O=C(O)C(F)(F)F.O=C(c1ccccc1)N1CCC[C@]2(C[C@@H](OCc3ccccn3)CO2)C1 ?
-136.6

Under Trypanosoma brucei: Percent Effect value of Nc1ncc(-c2ccc(NC(=O)[C@@H]3CCCCN3)cc2)cn1 ?
8.453

Under Trypanosoma brucei: Percent Effect value of CN(C)[C@@H]1CN(Cc2ccccc2O)C[C@H]1c1cn(C)c2ccccc12.Cl ?
100

Under Trypanosoma brucei: Percent Effect value of CN1C[C@@H]2CC[C@H](CC1=O)N2C(=O)c1ccc(-c2ccccc2)[nH]c1=O ?
2.014

Under Trypanosoma brucei: Percent Effect value of Cc1ccc(Nc2nccc(C3CCN(CC(N)=O)C3)n2)nc1 (stereo not drawn) ?
-50.23

Under Trypanosoma brucei: Percent Effect value of CC(C)c1ccc(CC(=O)N2CCCC3(CN(C)C(=O)O3)C2)cc1 (stereo not drawn) ?
-36.52

Under Trypanosoma brucei: Percent Effect value of Cc1cccc(CN2CCCCC2c2n[nH]cc2-c2cc(C)no2)c1.Cl (stereo not drawn) ?
54.66

Under Trypanosoma brucei: Percent Effect value of CN(C)Cc1nc2c(o1)CN(S(=O)(=O)c1cccs1)C2.O=C(O)C(F)(F)F ?
5.819

Under Trypanosoma brucei: Percent Effect value of Cc1cccnc1CN1CC[C@H](Oc2cccc(F)c2)[C@@](C)(O)C1 ?
-17.61

Under Trypanosoma brucei: Percent Effect value of Cc1nnc(C(C)NCC2(c3ccc(Cl)cc3)CCOCC2)o1 (stereo not drawn) ?
-12.99

Under Trypanosoma brucei: Percent Effect value of COc1ccc(CN2CCn3c(CO)nnc3C2)cc1CN1CCCC1.O=C(O)CC(O)(CC(=O)O)C(=O)O ?
-29.63

Under Trypanosoma brucei: Percent Effect value of CN(C)c1cc(CNC(=O)Nc2ccc(N3CCCC3)nc2)ccn1 ?
18.28

Under Trypanosoma brucei: Percent Effect value of CCNCCOc1ccc(-c2cc(N)nc3[nH]ccc23)cc1 ?
21.45

Under Trypanosoma brucei: Percent Effect value of Cc1cccc(CN2C[C@@H]3CN(C(=O)c4ccco4)C[C@@H]3C2=O)n1.O=C(O)C(F)(F)F ?
-11.66

Under Trypanosoma brucei: Percent Effect value of Cc1cccc(CN2CCCC2c2cccc(CCC(=O)O)n2)c1 (stereo not drawn) ?
-27.55

Under Trypanosoma brucei: Percent Effect value of Cc1cc(C(=O)N2CCOC(c3nc(C(C)C)n[nH]3)C2)c(C)s1 (stereo not drawn) ?
17.14

Under Trypanosoma brucei: Percent Effect value of O=C(O)C(F)(F)F.O=c1ccc2c([nH]1)CCC(NCc1ccc3c(c1)OCO3)C2 (stereo not drawn) ?
-24.67

Under Trypanosoma brucei: Percent Effect value of Cc1nc(CCNC2CCN(Cc3ccccc3)C2)sc1C (stereo not drawn) ?
-17.04
